# Tested on: sandwich-cultured rat hepatocytes
# Procedure summary: Intrinsic biliary clearance in sandwich-cultured rat hepatocytes
# Condition context: rat, 10 min, 1 μM
Assay endpoint: Predicted Cl (ml/min/Kg) HBSS (mL/min/kg)

Reported Predicted Cl (ml/min/Kg) HBSS, compound CC[C@H](C)C(=O)O[C@H]1C[C@H](O)C=C2C=C[C@H](C)[C@H](CC[C@@H](O)C[C@@H](O)CC(=O)O)[C@H]21 [Pravastatin] : ____
5.39

Which measured Predicted Cl (ml/min/Kg) HBSS value corresponds to O=C(O)C[C@H](O)C[C@H](O)/C=C/c1c(C2CC2)nc2ccccc2c1-c1ccc(F)cc1 [Pitavastatin] ?
2.44

Name the recorded Predicted Cl (ml/min/Kg) HBSS for CN(Cc1cnc2nc(N)nc(N)c2n1)c1ccc(C(=O)N[C@@H](CCC(=O)O)C(=O)O)cc1 [Methotrexate] .
0.23

[1] CCCCC(=O)N(Cc1ccc(-c2ccccc2-c2nnn[nH]2)cc1)[C@H](C(=O)O)C(C)C [Valsartan]
[2] C[C@H]1O[C@@H](O[C@H]2[C@@H](O)C[C@H](O[C@H]3[C@@H](O)C[C@H](O[C@H]4CC[C@@]5(C)[C@H](CC[C@@H]6[C@@H]5C[C@@H](O)[C@]5(C)[C@@H](C7=CC(=O)OC7)CC[C@]65O)C4)O[C@@H]3C)O[C@@H]2C)C[C@H](O)[C@@H]1O [Digoxin]
Short answer wanted: higher Predicted Cl (ml/min/Kg) HBSS, 1 or 2 ? Could you answer with the label of the item you picked?
2
